Measured pIC50 of individual entries
Species: Mus musculus
Experiment: Ability to inhibit tumor necrosis factor-alpha (TNF-alpha) production in mouse macrophages stimulated with LPS
Type: functional
pIC50: −log10 of the molar value.
MEASUREMENT LABEL: pIC50

• Nc1nc(-c2ccccc2)cc(C2CCN(C(=O)c3ccccc3)CC2)n1 = 5.29
• COc1ccc(Cc2cc(C3CCN(C(=O)C(C)(C)C)CC3)nc(N)n2)cc1 = 5.25
• COc1ccc(Cc2cc(C3CCN(C(=O)c4ccccc4[N+](=O)[O-])CC3)nc(N)n2)cc1 = 5.77
• COc1ccc(Cc2cc(C3CCN(C(=O)c4ccc(OC)c(OC)c4)CC3)nc(N)n2)cc1 = 6.05
• COc1ccc(Cc2cc(C3CCN(C(=O)Cc4ccccc4)CC3)nc(N)n2)cc1 = 5.68
• O=C(c1ccccc1)N1CCC(c2nc(O)nc3ccccc23)CC1 = 4.70
• O=C(c1ccccc1)N1CCC(c2ncnc3ccccc23)CC1 = 5.85
• Nc1nc(C2CCN(C3CCCCC3)CC2)c2ccccc2n1 = 4.28
• COc1ccc(Cc2cc(C3CCN(C(C)=O)CC3)nc(N)n2)cc1 = 5.21
• COc1ccc(Cc2cc(C3CCN(C(=O)c4cccc(OC)c4)CC3)nc(N)n2)cc1 = 5.92
• COc1ccc(Cc2cc(C3CCN(C(=O)c4cccc(OC)c4OC)CC3)nc(N)n2)cc1 = 6.05
• CCCC(=O)N1CCC(c2cc(Cc3ccc(OC)cc3)nc(N)n2)CC1 = 5.14
• O=C(c1ccccc1)N1CCC(c2nc(Cl)nc3ccccc23)CC1 = 5.85

###

Species: Mus musculus
Assay: Ability to inhibit tumor necrosis factor-alpha (TNF-alpha) production in mouse macrophages stimulated with LPS
Format: functional
pIC50: −log10 of the molar value.
Measured pIC50 of individual entries
MEASUREMENT LABEL: pIC50

- Nc1nc(N2CCCCC2)c2ccccc2n1: < 4.00
- CN1CCC(c2nc(N)nc3ccccc23)CC1: < 4.00
- Nc1nc(C2CCN(CCc3ccccc3)CC2)c2ccccc2n1: < 4.00

Reference source: ChEMBL document CHEMBL1133194
